pIC50: −log10 of the molar value.
pIC50 values for Serine/threonine-protein kinase mTOR (Homo sapiens), compiled from several publications.

Please review the entries below; each comes with its answer.
MOLECULE | pIC50
CNc1ncc(-c2nc(N3CCOCC3)c3nc(N4CCN(S(C)(=O)=O)CC4)n(CC4CC4)c3n2)c(C)n1 | 6.30 to 7.00
O=C1CCNc2c1c(C1CC3CCC(C1)N3C(=O)c1nnc[nH]1)nc1c(-c3ccc(-c4ccccn4)nc3)cnn21 (stereo not drawn) | > 8.00
C[C@H]1COCCN1c1nc(-c2ccc(NC(=O)Nc3cccnc3)cc2)nc2c1CS(=O)(=O)C2 | > 7.00
CNC(=O)Nc1ccc(-c2nc(N3CCOCC3)nc3c2cnn3CC(C)(C)O)cc1 | > 6.96
CC(F)C(=O)Nc1cccc(-c2cnc3c(N4CCOCC4)nc(-c4cnc(N)nc4)nc3c2)c1 (stereo not drawn) | > 7.30
COc1ccc(-c2ccnc(-c3cn(C)c(=O)n3-c3ccc(C(C)(C)C#N)cc3)c2)cc1 | 5.00 to 7.00

State its pIC50 for this molecule: `COc1cc(-c2c(F)ccc(NS(=O)(=O)c3cc(F)ccc3F)c2F)cc2c(N3CCOCC3)nc(-c3ccc(N)nc3)nc12`
6.00 to 7.00

Read the entry Cc1cc(C(C)Nc2ccccc2C(=O)O)c2oc(N3CCC(C)(C)CC3)cc(=O)c2c1 (single isomer, unassigned) and write its reported pIC50.
< 5.00

Supply pIC50 value. Item: `CCOc1ccc(-c2ccc3ncc4c(c3c2)n(-c2c(C)nn(C)c2C)c(=O)n4C)cc1OC`
6.11

* * *

pIC50: −log10 of the molar value.
The following compounds were reported with pIC50 values on Serine/threonine-protein kinase mTOR (Homo sapiens, UniProt P42345) in different studies.

COMPOUND | pIC50
CCOCc1ncc(-c2ccc3ncc4c(c3c2)n(-c2cn(C)nc2C)c(=O)n4C)cc1OC | 6.71
CN(C)C(=O)c1ccc(NC(=O)Nc2ccc(-c3nc(N4CCOCC4)c4ccc(-c5cccnc5F)cc4n3)cc2)cc1F | > 7.30
CCNC(=O)Nc1ccc(-c2nc3c(c(N4CCOC[C@@H]4C)n2)C(C)S(=O)(=O)C3)cc1 (stereo partly drawn) | > 7.00
COc1cccc(Cn2cnc3c(-c4ccc5cc[nH]c5c4)nc(N4CCOCC4)nc32)c1 | 5.30 to 6.00
CCNc1cc(-c2ccc3ncc4c(c3c2)n(-c2cn(C)nc2C)c(=O)n4C)cnc1COC | 8.30

Lab note: Serine/threonine-protein kinase mTOR (Homo sapiens, UniProt P42345) assay, enter pIC50 for `CNc1ncc(-c2ccc3ncc4c(c3c2)n(-c2cn(C(C)C)nc2C)c(=O)n4C)cc1Cl` here
8.05

State, for Serine/threonine-protein kinase mTOR (Homo sapiens, UniProt P42345), measured pIC50 of the compound listed here: `CN(C)C(=O)c1ccc(NC(=O)Nc2ccc(-c3nc(N4CCOCC4)c4cc(F)c(-c5cncc(S(C)(=O)=O)c5)cc4n3)cc2)cc1`
> 7.30

Give Serine/threonine-protein kinase mTOR (Homo sapiens, UniProt P42345) pIC50 for the following compound: `COc1ccccc1-n1c(=O)[nH]c2c(C(N)=O)nc(-c3cccc4[nH]ccc34)nc21`
5.00 to 5.29

Using Serine/threonine-protein kinase mTOR (Homo sapiens, UniProt P42345) as the test system, report measured pIC50 of `COc1ncc(-c2ccc3ncc(OC)c(=O)n3c2)cc1NS(=O)(=O)c1ccc(F)cc1Cl` .
7.30 to 8.00

Report measured pIC50 on Serine/threonine-protein kinase mTOR (Homo sapiens, UniProt P42345); entry: `CCC(=O)N1CCC(n2cnc3cnc4ccc(-c5cnc(N)c(C(F)(F)F)c5)nc4c32)CC1`
> 7.00

Fill: pIC50 (Serine/threonine-protein kinase mTOR (Homo sapiens, UniProt P42345)) for this compound `COc1ccncc1-c1ccc2c(N3CCOCC3)nc(-c3ccc(NC(=O)Nc4ccc(C(=O)N(C)C)cc4)cc3)nc2c1`
> 7.30

Using Serine/threonine-protein kinase mTOR (Homo sapiens, UniProt P42345) as the test system, report measured pIC50 of `CCOc1cc(-c2ccc3ncc4nnc(-c5ccc(C(C)(C)C#N)cc5)n4c3c2)cnc1N` .
> 7.00

With Serine/threonine-protein kinase mTOR (Homo sapiens, UniProt P42345) as the test system, provide measured pIC50 for this compound: `Nc1ncc(-c2ccc3ncc4nnn(C5CCN(C(=O)CO)CC5)c4c3n2)cc1C(F)(F)F`
> 7.00

Tell me pIC50 of `CCc1c(-c2cnc3[nH]c(=O)n(C[C@H]4COCCO4)c3c2)cnc2[nH]ccc12` when tested on Serine/threonine-protein kinase mTOR (Homo sapiens, UniProt P42345).
> 7.30

Report value only: pIC50, Serine/threonine-protein kinase mTOR (Homo sapiens, UniProt P42345), `CN1CCC(Cn2c(=O)[nH]c3ncc(-c4cnc5[nH]ccc5c4)cc32)CC1`
5.30 to 7.00
